# credit: patent US20260224590A1

- tgt: UniProt:P28223
- Sequence (P28223 whole entry): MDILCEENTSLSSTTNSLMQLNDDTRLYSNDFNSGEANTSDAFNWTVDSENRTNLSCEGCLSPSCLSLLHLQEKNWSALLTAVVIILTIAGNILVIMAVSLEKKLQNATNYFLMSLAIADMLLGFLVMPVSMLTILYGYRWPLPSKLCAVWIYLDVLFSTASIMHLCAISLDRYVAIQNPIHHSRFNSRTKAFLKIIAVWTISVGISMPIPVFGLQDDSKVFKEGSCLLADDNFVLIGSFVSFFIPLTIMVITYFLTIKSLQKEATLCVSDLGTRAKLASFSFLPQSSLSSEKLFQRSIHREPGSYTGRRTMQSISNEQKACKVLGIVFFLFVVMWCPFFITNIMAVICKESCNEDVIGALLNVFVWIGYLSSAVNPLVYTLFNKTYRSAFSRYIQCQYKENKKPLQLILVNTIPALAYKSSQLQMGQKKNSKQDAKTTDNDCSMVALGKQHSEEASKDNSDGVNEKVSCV
- measurementDescription: radioligand competitive binding assay, affinity for the 5-HT2A receptor
- runConditions: read-out: Ki, affinity for the 5-HT2A receptor; [3H]-LSD competition, 293T membranes transiently expressing 5-HT2A receptor
pKi: −log10 of the molar value.
Mark true (1) for reported pKi of 7 or greater; mark false (0) for anything smaller.

I'd appreciate it if you could say whether CN1CCN2c3c(cccc31)[C@@H]1CN(Cc3ccccc3O)CC[C@@H]12 has pKi at least equal to 7. false (0)

I'd appreciate it if you could say whether COc1cccc(CCN2CC[C@H]3[C@@H](C2)c2cccc4c2N3CCN4C)c1OC has pKi at least equal to 7. false (0)

I'd appreciate it if you could say whether COc1ccccc1CCN1CC[C@H]2[C@@H](C1)c1cccc3c1N2CCN3C has pKi at least equal to 7. true (1)

I'd appreciate it if you could say whether COc1ccccc1CCCN1CC[C@H]2[C@@H](C1)c1cccc3c1N2CCN3C has pKi at least equal to 7. true (1)

====

- tgt: UniProt P28223
- measurementDescription: radioligand competitive binding assay, affinity for the 5-HT2A receptor
- runConditions: Ki, affinity for the 5-HT2A receptor, [3H]-LSD competition, 293T membranes transiently expressing 5-HT2A receptor
Here the recorded Ki is given for each entry.
The figure you give is taken to be in nM; do not add the unit.

So what's the measured Ki for this one? COc1ccccc1CCCN1CCC2C(C1)c1cccc3c1N2CCC3 (single isomer, unassigned) 57

So what's the measured Ki for this one? COc1ccccc1CCCN1CCC2C(C1)c1cccc3c1N2CCCN3C (single isomer, unassigned) [I-14] 28

So what's the measured Ki for this one? COc1ccccc1CCCN1CCC2C(C1)c1cccc3c1N2CCCN3C (single isomer, unassigned) [I-15] 7
